- System: U251 CNS
- Experiment summary: NCI tumour cell line growth inhibition, 48 h
Give TGI for every item shown.

Request: Which TGI reading was recorded for the compound N#CC(C(=O)/C(=N\NC(N)=O)C(C#N)c1ccc(Cl)cc1)c1ccc(Cl)cc1 (stereo unspecified) ?
Result: > 100 µM

Request: Which TGI reading was recorded for the compound COc1cc(OC)cc(C(=O)CC(=O)c2cc(OC)cc(OC)c2)c1 ?
Result: > 100 µM

Request: Which TGI reading was recorded for the compound CNCCOC(=O)/C=C1\CC[C@H]2[C@@H]([C@@H](O)C(=O)[C@@H]3[C@]2(C)CC[C@H](O)[C@]3(C)C(=O)OC)[C@H]1C ?
Result: 1.17 µM

Request: Which TGI reading was recorded for the compound Cc1ccc(S(=O)(=O)n2c3c(c4ccccc42)CCN2C[C@H]([C@H](C)Br)CC[C@@H]32)cc1 ?
Result: > 100 µM

Request: Which TGI reading was recorded for the compound CC(C)SC(=S)Sc1c(Cl)c(Cl)nc(Cl)c1Cl ?
Result: 14 µM

Request: Which TGI reading was recorded for the compound Nc1c(C(=O)N/N=C/c2ccccc2)sc(=S)n1-c1ccccc1 ?
Result: > 100 µM

Request: Which TGI reading was recorded for the compound COc1ccc(-c2nc(SCC(=O)NNC(=S)Nc3ccccc3)[nH]c2-c2ccc(OC)cc2)cc1 ?
Result: 32 µM

Request: Which TGI reading was recorded for the compound CC(NCCC(c1ccccc1)c1ccccc1)c1ccccc1 (stereo unspecified) ?
Result: 2.99 µM

Request: Which TGI reading was recorded for the compound CCOC(=O)c1c(-c2ccc(O)c(OC)c2)c(C#N)c(=S)n(C2OC(CO)C(O)C(O)C2O)c1-c1ccccc1 (stereo unspecified) ?
Result: > 100 µM

Request: Which TGI reading was recorded for the compound C=CCc1cc(-c2nc(=S)[nH][nH]2)ccc1N=NNc1ccc(C(=O)O)cc1 ?
Result: > 100 µM

Request: Which TGI reading was recorded for the compound O=C(O)CCNc1ncnc2nc[nH]c12 ?
Result: > 100 µM

Request: Which TGI reading was recorded for the compound COc1ccc(CCN(C)C2CCC(C#N)(c3ccc(OC)c(OC)c3)CC2)cc1OC (stereo unspecified) ?
Result: > 100 µM

Request: Which TGI reading was recorded for the compound Cc1ccc2nc(/C(=C/c3ccc(/C=C(\NC(=O)c4ccccc4)c4nc5ccc(C)cc5[nH]4)c(C)c3)NC(=O)c3ccccc3)[nH]c2c1 ?
Result: 60.2 µM

Request: Which TGI reading was recorded for the compound Cc1nc(C)c(N2CCN([N+](=O)[O-])CC2)c(=O)[nH]1 ?
Result: > 100 µM

Request: Which TGI reading was recorded for the compound COC1=CC(=O)c2c(c(-c3nc(C)cs3)cn2C)C1=O ?
Result: > 100 µM

Request: Which TGI reading was recorded for the compound C=C1CC(C#N)(C#N)[C@H]2C3CCCC3C[C@@H]12 (stereo partly specified) (tested in a mixture with another compound) ?
Result: 40.4 µM

Request: Which TGI reading was recorded for the compound COc1cc(N=Nc2ccc(O)c3ncccc23)c2ncccc2c1 ?
Result: > 100 µM

Request: Which TGI reading was recorded for the compound CCOc1ccc(/C=C2\N=C(c3ccc([N+](=O)[O-])cc3)OC2=O)cc1 ?
Result: > 100 µM

Request: Which TGI reading was recorded for the compound CN1CCC(=O)/C(=C/c2ccccc2)C1 ?
Result: 19.1 µM

Request: Which TGI reading was recorded for the compound Nc1ccc(N=Nc2c(S(=O)(=O)O)cc3ccccc3c2S(=O)(=O)O)cc1 ?
Result: > 100 µM

Request: Which TGI reading was recorded for the compound CCN1CCN(c2cc(C)c3cc(NC(=O)c4ccc(OC)c(OC)c4)ccc3n2)CC1 ?
Result: > 100 µM

Request: Which TGI reading was recorded for the compound CCCCCC#CCOC(=O)C(=[N+]=[N-])P(=O)(c1ccccc1)c1ccccc1 ?
Result: > 10 µM

Request: Which TGI reading was recorded for the compound S=c1c2cn[nH]c2nc2scc(-c3ccc(Cl)cc3)n12 ?
Result: 25.8 µM

Request: Which TGI reading was recorded for the compound O=C1OC(C2Cc3ccc4ccccc4c3C2=O)c2ccccc21 (stereo unspecified) ?
Result: > 100 µM

Request: Which TGI reading was recorded for the compound CC1(C)OC2C(CO[Si](C)(C)C(C)(C)C)OC(n3c(I)c(C#C[Si](C)(C)C)c(=O)[nH]c3=O)C2O1 (stereo unspecified) ?
Result: 65.7 µM

Request: Which TGI reading was recorded for the compound COc1c(O)c2c(=O)cc3c4c5c(cc(=O)c6c(O)c(OC)c(CC(C)O)c(c(c1CC(C)O)c24)c65)OCO3 (stereo unspecified) ?
Result: 4.08 µM

Request: Which TGI reading was recorded for the compound CCOC(=O)c1cccc(N=Nc2nc[nH]c2/C=C/C(=O)OC)c1 ?
Result: > 100 µM

Request: Which TGI reading was recorded for the compound CCOC(=O)Nc1cc2c(c(N)n1)N=C(c1ccccc1)CO2 ?
Result: 14.3 µM

Request: Which TGI reading was recorded for the compound O=C1NC2c3c(I)sc(I)c3C(O)C2O1 (stereo unspecified) ?
Result: > 100 µM

Request: Which TGI reading was recorded for the compound CCn1c(O)c(/C=N/NC(=O)C(C)c2ccc(CC(C)C)cc2)sc1=S (stereo unspecified) ?
Result: > 38 µM

Request: Which TGI reading was recorded for the compound S=c1[nH]c(=S)c2cc3ccccc3nc2[nH]1 ?
Result: 41.6 µM

Request: Which TGI reading was recorded for the compound O=C1c2cc(-c3ccccc3)cnc2S(=O)(=O)N1c1ccc(Br)cc1 ?
Result: 90.3 µM

Request: Which TGI reading was recorded for the compound C#CC1/C(=C\C(=O)OC)CCCC1O (stereo unspecified) ?
Result: > 100 µM

Request: Which TGI reading was recorded for the compound NCCCN1c2ccccc2Sc2ccc(Cl)cc21 ?
Result: > 10 µM

Request: Which TGI reading was recorded for the compound CC(C)C1=Cc2ccc3c(c2C(=O)C1=O)CCCC3(C)C ?
Result: 27.2 µM

Request: Which TGI reading was recorded for the compound O=C1c2ccccc2C(=O)N1n1c(Cc2ccc([N+](=O)[O-])cc2)n[nH]c1=O ?
Result: > 100 µM

Request: Which TGI reading was recorded for the compound Cc1ccc(C2=CC(=O)OC(C[P+](c3ccccc3)(c3ccccc3)c3ccccc3)(c3ccccc3)O2)cc1 (stereo unspecified) ?
Result: 34.8 µM

Request: Which TGI reading was recorded for the compound COC(=O)/C=C\C(C#N)(C#N)N=Cc1ccc(C)cc1 ?
Result: 27.7 µM

Request: Which TGI reading was recorded for the compound O=C1OCC/C1=N/O ?
Result: > 100 µM

Request: Which TGI reading was recorded for the compound O=C(Nc1ccc(Br)cc1F)c1cc(Cl)ccc1O ?
Result: > 100 µM

Request: Which TGI reading was recorded for the compound COC1C(OC(=S)Nc2ccccc2)c2ccccc2N1C(C)=O (stereo unspecified) ?
Result: > 100 µM
